system: Phospho-eIF2α (Ser51); assay: Phospho-eIF2α (Ser51) Sandwich ELISA in K562 cells; assay type: cell-based; conditions: Homo sapiens, K562, 6 h, serum-free RPMI, 10 μM compound, control = 1, read-out: eIF2α phosphorylation, absorbance standardized to control (DMSO-treated) set to 1, at 10 μM

Compound smiles | Target under test | activity at 10 µM (%)
CS(=O)(=O)c1ccc(O[C@H]2CC[C@H](Nc3c(Nc4ccccc4C(F)(F)F)c(=O)c3=O)CC2)cc1 | Phospho-eIF2α (Ser51) | 84
CS(=O)(=O)c1ccc(O[C@H]2CC[C@H](Nc3c(Nc4ccc(Cl)cc4)c(=O)c3=O)CC2)cc1 | Phospho-eIF2α (Ser51) | 79
N#Cc1ccc(O[C@H]2CC[C@H](Nc3c(Nc4ccc(F)cc4)c(=O)c3=O)CC2)cc1 | Phospho-eIF2α (Ser51) | 83
CC(C)(C)c1ccc(Nc2c(N[C@H]3CC[C@H](Oc4ccc(C(F)(F)F)cc4)CC3)c(=O)c2=O)cc1 | Phospho-eIF2α (Ser51) | 204
N#Cc1ccc(O[C@H]2CC[C@H](Nc3c(Nc4cccc(F)c4)c(=O)c3=O)CC2)cc1 | Phospho-eIF2α (Ser51) | 90
O=c1c(Nc2ccccc2C(F)(F)F)c(N[C@H]2CC[C@H](Oc3ccc(C(F)(F)F)cc3)CC2)c1=O | Phospho-eIF2α (Ser51) | 194
O=c1c(Nc2cccc(C(F)(F)F)c2)c(N[C@H]2CC[C@H](Oc3ccc(C(F)(F)F)cc3)CC2)c1=O | Phospho-eIF2α (Ser51) | 201
COc1ccccc1Nc1c(N[C@H]2CC[C@H](Oc3ccc([N+](=O)[O-])cc3)CC2)c(=O)c1=O | Phospho-eIF2α (Ser51) | 133
CC(C)(C)c1ccc(Nc2c(N[C@H]3CC[C@H](Oc4ccc(S(C)(=O)=O)cc4)CC3)c(=O)c2=O)cc1 | Phospho-eIF2α (Ser51) | 133
CS(=O)(=O)c1ccc(O[C@H]2CC[C@H](Nc3c(Nc4ccc(C(F)(F)F)cc4)c(=O)c3=O)CC2)cc1 | Phospho-eIF2α (Ser51) | 102
O=c1c(Nc2cccc(F)c2)c(N[C@H]2CC[C@H](Oc3ccc(C(F)(F)F)cc3)CC2)c1=O | Phospho-eIF2α (Ser51) | 84
NS(=O)(=O)c1ccc(O[C@H]2CC[C@H](Nc3c(Nc4cccc(F)c4)c(=O)c3=O)CC2)cc1 | Phospho-eIF2α (Ser51) | 86
O=c1c(Nc2cccc(C(F)(F)F)c2)c(N[C@H]2CC[C@H](Oc3ccc([N+](=O)[O-])cc3)CC2)c1=O | Phospho-eIF2α (Ser51) | 140
CS(=O)(=O)c1ccc(O[C@H]2CC[C@H](Nc3c(Nc4cccc(Cl)c4)c(=O)c3=O)CC2)cc1 | Phospho-eIF2α (Ser51) | 77
O=c1c(Nc2ccc(F)cc2)c(N[C@H]2CC[C@H](Oc3ccc(C(F)(F)F)cc3)CC2)c1=O | Phospho-eIF2α (Ser51) | 65
O=c1c(Nc2ccc(C(F)(F)F)cc2)c(N[C@H]2CC[C@H](Oc3ccc([N+](=O)[O-])cc3)CC2)c1=O | Phospho-eIF2α (Ser51) | 91
CS(=O)(=O)c1ccc(O[C@H]2CC[C@H](Nc3c(Nc4cc(C#N)cc(C(F)(F)F)c4)c(=O)c3=O)CC2)cc1 | Phospho-eIF2α (Ser51) | 168
CC(C)(C)c1cccc(Nc2c(N[C@H]3CC[C@H](Oc4ccc([N+](=O)[O-])cc4)CC3)c(=O)c2=O)c1 | Phospho-eIF2α (Ser51) | 112
COc1ccc(Nc2c(N[C@H]3CC[C@H](Oc4ccc(S(C)(=O)=O)cc4)CC3)c(=O)c2=O)cc1 | Phospho-eIF2α (Ser51) | 211
COC(=O)c1ccc(Nc2c(N[C@H]3CC[C@H](Oc4ccc(S(C)(=O)=O)cc4)CC3)c(=O)c2=O)cc1 | Phospho-eIF2α (Ser51) | 148
CS(=O)(=O)c1ccc(O[C@H]2CC[C@H](Nc3c(Nc4ccccc4Cl)c(=O)c3=O)CC2)cc1 | Phospho-eIF2α (Ser51) | 101
N#Cc1ccc(O[C@H]2CC[C@H](Nc3c(Nc4ccccc4Cl)c(=O)c3=O)CC2)cc1 | Phospho-eIF2α (Ser51) | 199
CS(=O)(=O)c1ccc(O[C@H]2CC[C@H](Nc3c(Nc4ccccc4)c(=O)c3=O)CC2)cc1 | Phospho-eIF2α (Ser51) | 94
